Every entry's value here was drawn from paper PMC11054906.

procedureText: Population PK analysis (NLME, Monolix) of empagliflozin plasma concentrations from two phase 1 crossover studies
Format: in vivo, healthy Korean subjects
reportedConditions: presented as SD (CV)
recordedEndpoint: γCL, interoccasion variability (%)
Record the value in %, omitting the unit from your answer.

Would you mind telling me what γCL, interoccasion variability value was observed for `OC[C@H]1O[C@@H](c2ccc(Cl)c(Cc3ccc(O[C@H]4CCOC4)cc3)c2)[C@H](O)[C@@H](O)[C@@H]1O` ?
4.3
